Assay Notes: Odor threshold and odor value of perfuming compounds (Tables 4 to 10)
Condition Parameters: Table 8, perfuming compounds having a sweet note
Observed Property: Odor Value
// no unit, no text: just the number

Examples with their reported Odor Value follow.
{"Compound": "CC(C)CC(=O)OCc1ccccc1 [BENZYL 3-METHYLBUTANOATE]", "Observed Property": "Odor Value", "Quantitative Result": "8.70E+03"}
{"Compound": "Cc1cnc(C)c(C)n1 [2,3,5-TRIMETHYLPYRAZINE]", "Observed Property": "Odor Value", "Quantitative Result": "2.80E+07"}

Moving on to the next compound.
Q: Please give the measured Odor Value for this compound: O=C1CCCCCCCCCCC(=O)OCCO1 [1,4-dioxacyclohexadecane-5,16-dione]
A: 6.55E+02

###

Assay Notes: Odor threshold and odor value of perfuming compounds (Tables 4 to 10)
Condition Parameters: Table 7, citrus note; equals volatility divided by odor threshold
Where a name gives a salt, the structure may show the parent alone.
Please use Satisfied for Odor Value under 6000 and Not satisfied for everything else, ties included.

Field: example entries. Status: answers known.
{"Compound": "COCC(C)Cc1ccccc1 (racemic) [(+−)-(3-methoxy-2-methylpropyl)benzene]", "Label": "Not satisfied"}
{"Compound": "CCCCC[C@H]1C(=O)CC[C@@H]1CC(=O)OC (racemic)", "Label": "Satisfied"}
{"Compound": "C/C=C/c1ccc(OC(C)=O)c(OC)c1", "Label": "Not satisfied"}

Q: Determine whether this compound shows Odor Value lower than 6000 (ties excluded): CC(OC=O)C1CCCC(C)(C)C1 (centres unmarked)
A: Satisfied

Q: Determine whether this compound shows Odor Value lower than 6000 (ties excluded): O=COCCc1ccccc1 [2-PHENYLETHYL FORMATE]
A: Not satisfied

###

Assay Notes: Volatility of perfuming compounds (Tables 4 to 10), with top/middle/bottom note type
Format: physicochemical
Condition Parameters: note type (Top/Middle/Bottom) by volatility; perfuming compounds having a green note
Structures can show the parent of a compound that is named as a salt.
Observed Property: Type

Examples with their reported Type follow.
{"Compound": "CC(=O)OC(CC(C)C)CC(C)C [1-ISOBUTYL-3-METHYLBUTYL ACETATE]", "Type": "Top"}
{"Compound": "CC/C=C\\CCOC(C)=O [(Z)-3-HEXENYL ACETATE]", "Type": "Top"}
{"Compound": "CCCOC(C)OCCc1ccccc1 (stereo not drawn)", "Type": "Middle"}
{"Compound": "CC(=O)CCc1ccccc1", "Type": "Top"}
{"Compound": "C[C@@H]1CC[C@@H](C(C)(C)S)C(=O)C1", "Type": "Top"}

Q: Please give the measured Type for this compound: COC(=O)OC1CC/C=C\CCC1 (racemic)
A: Top

Q: Please give the measured Type for this compound: C=CCOC(=O)CCC1CCCCC1 [ALLYL 3-CYCLOHEXYLPROPANOATE]
A: Middle

Q: Please give the measured Type for this compound: CC(=O)/C=C/C1C(C)=CCCC1(C)C (racemic)
A: Middle

Q: Please give the measured Type for this compound: CC(=O)OC/C=C(\C)CCC=C(C)C [(E)-3,7-DIMETHYL-2,6-OCTADIENYL ACETATE]
A: Middle

Q: Please give the measured Type for this compound: "O=Cc1ccccc1"
A: Top

Q: Please give the measured Type for this compound: O=COCc1ccccc1 [BENZYL FORMATE]
A: Top

Q: Please give the measured Type for this compound: "CC(C)[C@@H]1CC[C@@H](C)CC1=NO"
A: Bottom

Q: Please give the measured Type for this compound: "CC/C=C\CC/C=C/C=O"
A: Top

Q: Please give the measured Type for this compound: "CC(C)(C)c1ccc2c(c1)OCC(=O)CO2"
A: Bottom

Q: Please give the measured Type for this compound: CCCCCCC#CC(=O)OC [METHYL 2-NONYNOATE]
A: Middle

###

Assay Notes: Volatility of perfuming compounds (Tables 4 to 10), with top/middle/bottom note type
Assay type: physicochemical
Condition Parameters: note type (Top/Middle/Bottom) by volatility; perfuming compounds having a green note
Structures can show the parent of a compound that is named as a salt.
Observed Property: Type

{"Compound": "C=CC1(C)CCCC(C)(C)O1 (racemic)", "Type": "Top"}
{"Compound": "CCOC(=O)C12CCCC1C1CCC2C1 (stereo not shown)", "Type": "Top"}
{"Compound": "CC1=CC2CC(C=O)C1CC2C(C)C (stereo not shown)", "Type": "Top"}
{"Compound": "CCCCCC/C=C/C(=O)OC [methyl (2E)-2-nonenoate]", "Type": "Top"}
{"Compound": "C=CCOC(=O)COc1ccccc1 [ALLYL PHENOXYACETATE]", "Type": "Bottom"}

Q: Please give the measured Type for this compound: O=COCCc1ccccc1 [2-PHENYLETHYL FORMATE]
A: Top

Q: Please give the measured Type for this compound: "Cc1ccc(OCC=O)cc1"
A: Middle

Q: Please give the measured Type for this compound: CC(CC=O)c1ccccc1 (racemic) [(+−)-3-PHENYLBUTANAL]
A: Top

Q: Please give the measured Type for this compound: "C=CCCC(=O)C1=CCCC(C)(C)C1"
A: Bottom

Q: Please give the measured Type for this compound: CCCCCCCC(=O)OCC [ethyl octanoate]
A: Top

###

Below, each entry is listed alongside its reported Volatility.
Assay Notes: Volatility of perfuming compounds (Tables 4 to 10), with top/middle/bottom note type
Type: physicochemical
Condition Parameters: Table 6, perfuming compounds having a fruity note

Examples with their reported Volatility follow.
{"Compound": "CCCCCC(=O)CC", "Volatility": "6787.60 μg/l air"}
{"Compound": "CC(=O)/C(C)=C/C1C(C)=CCCC1(C)C (racemic)", "Volatility": "36.33 μg/l air"}
{"Compound": "CCCCCC/C=C/C(=O)OC [methyl (2E)-2-nonenoate]", "Volatility": "264.84 μg/l air"}
{"Compound": "CCCC1CCCC(=O)O1 (racemic) [(+−)-6-propyltetrahydro-2H-pyran-2-one]", "Volatility": "57.43 μg/l air"}

Q: Please give the measured Volatility for this compound: CC/C=C(\C)C(O)CCCCC (racemic) [(+−)-(E)-4-METHYL-3-DECEN-5-OL]
A: 64.15 μg/l air

Q: Please give the measured Volatility for this compound: CCOC(=O)CC1(C)OCCO1 [ETHYL 2-METHYL-1,3-DIOXOLANE-2-ACETATE]
A: 479.20 μg/l air

Q: Please give the measured Volatility for this compound: "COc1cc(C=O)ccc1OC(=O)C(C)C"
A: 1.01 μg/l air

###

Assay Notes: Volatility of perfuming compounds (Tables 4 to 10), with top/middle/bottom note type
Format: physicochemical
Condition Parameters: perfuming compounds having a green note
Values of Volatility (μg/l air) greater than or equal to 2000 μg/l air map to 1; values below map to 0.

Field: example entries. Status: answers known.
{"Compound": "CC(=O)C(C)O (racemic) [(+−)-3-HYDROXY-2-BUTANONE]", "Label": 1}
{"Compound": "C=CCOC(=O)CCCCCC [ALLYL HEPTANOATE]", "Label": 0}
{"Compound": "CCCC(=O)OCC [ETHYL BUTANOATE]", "Label": 1}
{"Compound": "CCCCCCCC=O [OCTANAL]", "Label": 1}

Q: Does CCCCCC(=O)OC [METHYL HEXANOATE] have a reported Volatility (μg/l air) of at least 2000 μg/l air?
A: 1

Q: Does CCCCCC#CC(=O)OC [METHYL 2-OCTYNOATE] have a reported Volatility (μg/l air) of at least 2000 μg/l air?
A: 0

Q: Does CC(CO)c1ccccc1 (racemic) [(+−)-2-phenyl-1-propanol] have a reported Volatility (μg/l air) of at least 2000 μg/l air?
A: 0

Q: Does CCC/C=C/C=O [(2E)-2-HEXENAL] have a reported Volatility (μg/l air) of at least 2000 μg/l air?
A: 1

Q: Does CCCCCCO [1-hexanol] have a reported Volatility (μg/l air) of at least 2000 μg/l air?
A: 1

Q: Does CCCCCCC#CC(=O)OC [METHYL 2-NONYNOATE] have a reported Volatility (μg/l air) of at least 2000 μg/l air?
A: 0

Q: Does CCCCCC/C=C/C(=O)OC [methyl (2E)-2-nonenoate] have a reported Volatility (μg/l air) of at least 2000 μg/l air?
A: 0

Q: Does CC/C=C\CCOC(C)=O [(Z)-3-HEXENYL ACETATE] have a reported Volatility (μg/l air) of at least 2000 μg/l air?
A: 1

Q: Does CC/C=C(\C)C(O)CCCCC (racemic) [(+−)-(E)-4-METHYL-3-DECEN-5-OL] have a reported Volatility (μg/l air) of at least 2000 μg/l air?
A: 0

Q: Does "Cc1ccc(OCC=O)cc1" have a reported Volatility (μg/l air) of at least 2000 μg/l air?
A: 0
